B1: GA-binding protein alpha chain, residues 172 to 250; numbered along this chain, Q06546 (parent)
chain: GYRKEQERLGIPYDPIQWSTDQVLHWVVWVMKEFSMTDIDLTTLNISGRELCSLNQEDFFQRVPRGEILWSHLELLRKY

variants of: B1; test: abundance fitness (aPCA) (normalised: wild type 0, dead -1); higher = more abundant; growth selection in yeast, the domain comes from the species named; details: Homo sapiens
Readout Label: abundance fitness

// below: answered variants
M36F :: -0.09
Q17V :: -0.121

Bench note: what abundance fitness did D38F show?
-0.492

Do the same for P12G please
-0.577

Repeat with P64Q
-0.266

Do the same for L41M please
-0.008

Queued: C52Y
-0.431

These data points were gathered from the Human Domainome abundance scans (Beltran et al. 2025).
